assay: Half life in Beagle dog at 20 mg/kg, po; format: ADME, organism-based, Canis lupus familiaris; details: in vivo
Metric: half-life (h)
Answers are plain numbers, in h.

half-life for COc1nn(C)cc1Nc1nccc(-c2c[nH]c3c(NC(=O)[C@@H](C)N4CCN(C)CC4)cccc23)n1 [GOLIDOCITINIB] is 9

----------
experiment: Octanol-buffer partition coefficient, log D of the compound at pH 7.4 by shake flask method; assay type: physicochemical
Metric: logD
One number for each entry.

logD for `COc1nn(C)cc1Nc1nccc(-c2c[nH]c3c(NC(=O)[C@@H](C)N4CCN(C)CC4)cccc23)n1` is 1.7

----------
test: Volume of distribution at steady state in Beagle dog at 10 mg/kg, iv; assay type: ADME, organism-based, Canis lupus familiaris; details: in vivo
Metric: Vd (L/kg)
Answers are plain numbers, in L/kg.

Vd for `COc1nn(C)cc1Nc1nccc(-c2c[nH]c3c(NC(=O)[C@@H](C)N4CCN(C)CC4)cccc23)n1` is 6.3

Each recorded value in this set is attributed to ChEMBL document CHEMBL4402602.
